System: MDA-N
Assay: NCI tumour cell line growth inhibition, 48 h
The source made the active and inactive calls. Cut-off read from the data, not from the text of the source: active = GI50 up to about 1.1 µM and inactive = higher.
Possible outcomes: active, inactive

{"columns": ["COMPOUND", "CLASS"],
 "data": [
  ["COc1cc2ccccc2c2cc([N+](=O)[O-])oc12", "active"],
  ["CC(=O)OCC1OC(n2cc(F)c(=O)[nH]c2=O)C(OC(C)=O)C1OC(C)=O (stereo unspecified)", "inactive"],
  ["O=C(/C=C\\c1ccccc1-c1ccccc1)c1ccccc1", "inactive"],
  ["COc1ccc(/N=c2/oc3ccccc3cc2C(N)=O)cc1", "inactive"],
  ["Cc1cc(C)c(O)c(Cc2cccc(Cc3cc(C)cc(C)c3O)c2O)c1", "inactive"],
  ["CC1CC/C(=C\\c2ccc(F)cc2)C2=C1C(c1ccc(F)cc1)NC(=S)N2 (stereo unspecified)", "inactive"],
  ["CCOP(=O)(OCC)OC1c2[nH]ccc2-c2cc(C(=O)OC)[nH]c2C1OC (stereo unspecified)", "inactive"],
  ["OCc1cc2c([nH]c3ccccc32)c(C(O)CO)n1 (stereo unspecified)", "inactive"],
  ["COc1cc2c(c(OC)c1)[C@H](C)N(Cc1ccccc1)C(C)C2 (stereo partly specified)", "inactive"],
  ["CCOC(=O)C1=NNC(C(=O)c2ccccc2)C1c1ccccc1 (stereo unspecified)", "inactive"],
  ["Cc1ccc(-c2cs/c(=N\\c3ccccc3)n2NC(=O)c2ccncc2)cc1", "inactive"]
]}

---

Tested on: UACC-257
Test: NCI tumour cell line growth inhibition, 48 h
Active and inactive are the calls of the source. Rule as the data show it: active = GI50 up to about 1.1 µM and inactive = higher.
Possible outcomes: active, inactive

{"columns": ["MOLECULE", "CLASS"],
 "data": [
  ["CCOP(=O)(O)CN1CCNCCN(CP(=O)(O)OCC)CCNCC1", "inactive"],
  ["CC(=O)OC(C)(C)/C=C/C(=O)[C@](C)(O)[C@H]1[C@H](O)C[C@@]2(C)[C@@H]3CC=C4[C@@H](C=C(O)C(=O)C4(C)C)[C@]3(C)C(=O)C[C@]12C", "active"],
  ["Cc1c(-c2ccccc2)[nH]c2cc(Cl)ccc2c1=O", "inactive"],
  ["COc1c(C(=O)/C(=N/Nc2cccc(Cl)c2)C(C)=O)c(O)c(OC)c2occc12", "inactive"],
  ["OCC(O)C(OC1OC(CO)C(O)C(O)C1O)c1nn(-c2ccc(Cl)cc2)c2nc3cc(Cl)ccc3nc12 (centres undefined)", "inactive"],
  ["COc1cc(Nc2n[nH]c(NS(=O)(=O)c3cc(C)c(Cl)cc3S)n2)cc(OC)c1OC", "inactive"],
  ["CC(C)c1ccc2nc3ccc(C(=O)NCCN4CCN(c5ccccc5)CC4)cn3c(=O)c2c1", "inactive"],
  ["Cn1c2ccccc2n2c(=O)c3c(c(C#N)c12)CCCC3", "inactive"],
  ["CC12C(=O)N(CCN)C(=O)C1C1c3ccccc3C2c2ccccc21 (centres undefined)", "inactive"]
]}

---

System: HT-29
Test: NCI tumour cell line growth inhibition, 48 h
The source made the active and inactive calls. Rule as the data show it: active = GI50 up to about 1.1 µM and inactive = higher. Where a SMILES comes first, the peptide text is derived from it. [ ]: non-standard residue; d: D form. The star is where a group is joined. Chg = N[CH](C(=O)O)C1CCCCC1; Cbz = O=C(OCc1ccccc1)*; OBn = c1ccc(CO*)cc1
Possible outcomes: active, inactive

{"columns": ["MOLECULE", "CLASS"],
 "data": [
  ["O=C1CCC(NC(=O)c2ccccc2)C(=O)N1 (stereo unspecified)", "inactive"],
  ["CCOC(=O)/C=C/c1nc(C#N)c(N)o1", "inactive"],
  ["CC(=O)OC(C)(C)/C=C/C(=O)[C@](C)(O)[C@H]1[C@H](O)C[C@@]2(C)[C@@H]3CC=C4[C@@H](C=C(O)C(=O)C4(C)C)[C@]3(C)C(=O)C[C@]12C", "active"],
  ["COc1cc(/C=C(\\C#N)c2nc3ccccc3o2)ccc1O", "inactive"],
  ["CSc1c(C(=O)Nc2ccccc2)c(N)nn1-c1ccccc1", "inactive"],
  ["CC(C)(C)c1ccc(C(C)(C)C)c(N2C(=O)[C@@H]3[C@@H]4C=C[C@@H](C4)[C@]3(C)C2=O)c1", "inactive"],
  ["C=C1C(=O)O[C@H]2C/C(C=O)=C\\[C@H]3O[C@H]3/C(COC(=O)C(C)C)=C/CC12 (stereo partly specified)", "inactive"],
  ["CCN(CC)C(=O)CCN1CC1", "inactive"],
  ["O=C1Nc2ccccc2/C1=N/Nc1ccccc1Cl", "inactive"],
  ["COc1ccc2ccccc2c1/C=C/C(=O)c1ccccc1", "inactive"],
  ["COc1cc(/C=C2/SC(c3ccccc3)N(c3ccc(Cl)cc3)C2=O)cc(OC)c1OC (stereo unspecified)", "inactive"],
  ["CN(C)CCNCCN", "inactive"],
  ["O=C1CC2(CCN(CC3COc4ccccc4O3)CC2)C(=O)N1N1CCCCCC1 (stereo unspecified)", "inactive"],
  ["N#CC(C(=O)CCC(=O)Nc1cccc(C(F)(F)F)c1)c1ccc(Cl)cc1 (stereo unspecified)", "inactive"],
  ["C[C@]12CC[C@@H]3c4ccc(OCC(=O)O)cc4CC[C@H]3[C@@H]1CCC2=O", "inactive"],
  ["O=C1C=C(c2ccccc2)NC1(c1ccccc1)c1cc(-c2ccccc2)[nH]c1-c1ccccc1 (stereo unspecified)", "inactive"],
  ["COCC(C)(C)/N=C/N1Cc2cc3ccccc3nc2C1", "inactive"],
  ["C#CCOC(=O)C(N)CS (stereo unspecified)", "inactive"],
  ["COC(=O)C(NC(=O)C(CC(=O)OCc1ccccc1)NC(=O)OCc1ccccc1)C1CCCCC1 (stereo unspecified) (Cbz-Asp(OBn)-[Chg]-OMe; configuration not given here)", "inactive"],
  ["C=C1CC(C)(COc2ccc3ccc(=O)oc3c2)OC1=O (stereo unspecified)", "inactive"],
  ["COc1ccc(C2C=C(c3ccc(C)cc3)N(c3ccc(OC)cc3[N+](=O)[O-])C3C(=O)OC(=O)C23)c(OC)c1 (stereo unspecified)", "inactive"],
  ["C/C=C/[P+](c1ccccc1)(c1ccccc1)c1ccccc1", "active"],
  ["CCCCCCCCCCCCCCCCCC(=O)OCC(COC1OC(CS(=O)(=O)O)C(O)C(O)C1O)OC(=O)CCCCCCCCCCCCCCCCC (stereo unspecified)", "inactive"],
  ["O=P(O)(NCCCl)NCCCl [PALIFOSFAMIDE]", "inactive"],
  ["CCOP(C)(=O)/C(Cc1ccc(OC)c(OC)c1)=N\\O (stereo unspecified)", "inactive"],
  ["CCC(CCCCC1CC[C@H]2CC(=O)C[C@@H]12)OC (stereo partly specified)", "inactive"],
  ["O=C1OC2C(O)COC2(O)C1(O)Cc1c[nH]c2ccccc12.O=C1OC2C(O)COC2(OCc2c[nH]c3ccccc23)C1O (stereo unspecified)", "inactive"],
  ["Oc1nnc2c(-c3ccccc3)n[nH]c2n1", "inactive"],
  ["Cn1c2c(c3ccccc31)CCN(CCCCN1CCN(c3ccccc3)CC1)C2=O", "inactive"],
  ["Cc1c(-c2ccccc2)[nH]c2cc(Cl)ccc2c1=O", "inactive"],
  ["COc1cc2ccccc2c2cc([N+](=O)[O-])oc12", "active"],
  ["C=C1C(=O)O[C@H]2C1C[C@H](O)[C@@]1(C)OC1CC[C@@]1(C)O[C@H]21 (stereo partly specified)", "inactive"],
  ["O=C1CC(Sc2nc3ccc(I)cc3c(=O)n2Cc2ccccc2)C(=O)NN1 (stereo unspecified)", "inactive"],
  ["COc1ccc(CCc2ccccc2CC(=O)O)cc1", "inactive"],
  ["COC(=O)[C@@H]1C[C@]2(Br)c3ccccc3N(S(=O)(=O)c3ccccc3)[C@@H]2N1C(=O)OC", "inactive"],
  ["COc1cc(/C=C(\\C)c2ccc3c(c2)OCO3)cc(OC)c1OC", "inactive"],
  ["CC(=O)NC(Cc1ccc(OP(=O)(OCc2ccc([N+](=O)[O-])o2)N(C)CCCCCl)cc1)C(=O)NC(C)c1ccc(OCC2CCCCC2)c(C(N)=O)c1 (stereo unspecified)", "inactive"],
  ["COc1ccc(C2COc3c(ccc(O)c3C)C2)cc1OC (stereo unspecified)", "inactive"],
  ["CN1CCN(c2ccc3c(c2)NCC(=O)N3)CC1", "inactive"],
  ["C/C(=C\\c1ccccc1)C(=O)c1c(C)cc(C)cc1C", "inactive"],
  ["COc1ccc(-c2oc3cc(OC(C)=O)cc(OC(C)=O)c3c(=O)c2OC)cc1", "inactive"]
]}
